The reported numbers originate from ChEMBL document CHEMBL1201862.

# Tested on: U-251
# Procedure Details: NCI tumour cell line growth inhibition, 48 h
Active and inactive are the calls of the source. Rule as the data show it: active = GI50 up to about 1.1 µM and inactive = higher.
Observable: GI50

# example entries with known answers
O=C1C2=C(C3=NCCc4c[nH]c1c43)c1c(Br)cc(Br)cc1CCN2 ... 3.66 µM (inactive)
CCOC(=O)c1ccc(N(C)Cc2cnc3nc(N)nc(N)c3n2)cc1 ... 8.99 µM (inactive)

The reported value for Nc1nc(N)c2c(n1)NC(=O)c1c(c3ccccc3n1Cc1ccc(Cl)cc1)C2 in terms of GI50 is 25.8 µM (inactive)

The compound listed as COc1c(C)cc2c(C(C)C)c(O)c(O)c(C=O)c2c1O has a reported GI50 of 18 µM (inactive)

The reported GI50 of the compound O=S(=O)(Oc1ccc2oc3ccccc3c2c1-c1c(OS(=O)(=O)C(F)(F)F)ccc2oc3ccccc3c12)C(F)(F)F was > 100 µM (inactive)

###

# System: HL-60
# Procedure Details: NCI tumour cell line growth inhibition, 48 h
Calls of active or inactive are those of the source. No stated cut-off is given here; in the data, active = GI50 up to about 1.1 µM and inactive = higher.
// values below are reported GI50

# annotated cases, reported GI50 shown
CC(=O)NNc1nc(C)c(C(=O)NNC(=O)C(=O)Nc2cccc(C(C)=O)c2)s1 ... 25.5 µM (inactive)
O=C(O)CCc1coc2ccc(O)cc12 ... > 100 µM (inactive)
CCN1CC2=C(NC(=S)NC2c2ccc(Cl)cc2)/C(=C/c2ccc(Cl)cc2)C1 (stereo not given) ... 23.7 µM (inactive)
O=C1C(Br)=C(C2=CC(=P(c3ccccc3)(c3ccccc3)c3ccccc3)C=C2)C(=O)C(Br)=C1C1=CC(=P(c2ccccc2)(c2ccccc2)c2ccccc2)C=C1 ... > 100 µM (inactive)

Now take the following compound into account.
Reported GI50 for CCc1ccc2oc(=O)ccc2c1 was 42.5 µM (inactive)

###

# System: SF-539
# Procedure Details: NCI tumour cell line growth inhibition, 48 h
Calls of active or inactive are those of the source. Cut-off read from the data, not from the text of the source: active = GI50 up to about 1.1 µM and inactive = higher.
Write down the outcome that applies. Available outcomes: active, inactive

IN: What outcome does the record of this test show for OC1(c2ccccc2)C2CCN(CC2)C1CN1CCOCC1 (configuration not stated) ?
OUT: inactive

IN: For Cc1ccn2c(c1)nc1nc3ccccc3nc12 , what call appears in the results of this test?
OUT: inactive

IN: Fill in: this test's call for O=C1Nc2ccccc2C(=O)/C1=C/NC(=S)NCc1ccccc1 is ___
OUT: inactive

IN: Would you mind telling me which call this test gave CC[N+](C)(CC)CCNC(=O)C(O)(c1ccccc1)c1ccccc1 ?
OUT: inactive

IN: Test call for this molecule, please: COc1cc(/C=C(\C#N)c2ccccn2)cc(Br)c1O
OUT: inactive

IN: How did this test come out for CCOC(=O)c1c[nH]cc1-c1cn(S(=O)(=O)c2ccccc2)cc1C ?
OUT: inactive

IN: Given CCOC(=O)/C(=C\c1ccc(C#N)cc1)C(C)=O , state the outcome it received in this test.
OUT: inactive

IN: In this assay, the call recorded for COC(C)(C)C1(O)CC[C@@H](C)CC1=O (some centres not stated) was what?
OUT: inactive

IN: Name the outcome recorded for O=C(CCC(=O)c1ccsc1)c1ccsc1 in the assay.
OUT: inactive

IN: // param item: CCCCCCc1cc2cc(-c3cn4ccsc4n3)c(=O)oc2cc1O ; yields the recorded call
OUT: inactive

IN: Dear all, I need the recorded test outcome for CC#CC(=O)SCCNC(=O)CC , thank you.
OUT: inactive

IN: What did the test return for O=C(N/N=C/c1ccc2c(c1)OCO2)Nc1ccccc1Cl ?
OUT: active
